// provenance: the kinase profiling compilation of Christmann-Franck et al. (2016)

# Tested on: EGFR (human), P00533 [T790M]
# Method: KINOMEscan competition binding
# Test Parameters: compound 1.0 µM
Reported Endpoint: kinase still bound, per cent of control

| Given Smiles | kinase still bound, per cent of control |
| --- | --- |
| CN(C)C/C=C/C(=O)Nc1cccc(C(=O)Nc2ccc(Nc3nccc(-c4cccnc4)n3)cc2)c1 | 91% |
| CN(C)C/C=C/C(=O)Nc1cccc(C(=O)Nc2ccc(Nc3nccc(-c4c(-c5ccccc5)nn5ccccc45)n3)cc2)c1 | 11% |
| Cc1cc(NC(=O)c2cccc(NC(=O)/C=C/CN(C)C)c2)ccc1Nc1nccc(-c2cccnc2)n1 | 100% |

Field: next compound
Lookup: Provide measured kinase still bound, per cent of control on EGFR (human), P00533 [T790M] for `CN(C)C/C=C/C(=O)Nc1cccc(C(=O)Nc2ccc(Nc3nccc(/C(C#N)=C4\Nc5ccccc5S4)n3)cc2)c1` please.
Found: 80%

###

# Measured Target: UniProtKB Q96RR4
# Sequence (Q96RR4 whole entry, looked up): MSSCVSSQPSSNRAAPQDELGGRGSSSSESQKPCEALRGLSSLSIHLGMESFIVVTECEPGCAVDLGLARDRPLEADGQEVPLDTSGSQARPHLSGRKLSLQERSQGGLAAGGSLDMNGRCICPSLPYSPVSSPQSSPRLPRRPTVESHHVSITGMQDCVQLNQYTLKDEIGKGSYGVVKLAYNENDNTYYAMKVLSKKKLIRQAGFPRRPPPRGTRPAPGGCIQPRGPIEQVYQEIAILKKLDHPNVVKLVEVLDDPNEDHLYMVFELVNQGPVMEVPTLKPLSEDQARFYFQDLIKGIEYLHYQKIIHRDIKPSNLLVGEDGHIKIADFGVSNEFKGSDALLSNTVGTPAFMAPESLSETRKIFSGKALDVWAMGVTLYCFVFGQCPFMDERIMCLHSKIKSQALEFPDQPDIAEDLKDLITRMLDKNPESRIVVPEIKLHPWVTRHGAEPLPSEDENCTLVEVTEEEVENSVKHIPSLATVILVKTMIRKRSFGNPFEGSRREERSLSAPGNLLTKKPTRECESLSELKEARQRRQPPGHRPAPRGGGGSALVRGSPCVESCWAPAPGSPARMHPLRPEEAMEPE
# Method: KINOMEscan competition binding
# Test Parameters: compound 1.0 µM
Reported Endpoint: kinase still bound, per cent of control (%)
One number for each entry, in %.

Consider the reported kinase still bound, per cent of control for these molecules:
| Given Smiles | Unit Name | kinase still bound, per cent of control |
| --- | --- | --- |
| Cc1cc(NC(=O)c2cccc(NC(=O)/C=C/CN(C)C)c2)ccc1Nc1nccc(-c2cccnc2)n1 | % | 93 |
| CN(C)C/C=C/C(=O)Nc1cccc(C(=O)Nc2ccc(Nc3nccc(-c4cccnc4)n3)cc2)c1 | % | 40 |
| CN(C)C/C=C/C(=O)Nc1cccc(C(=O)Nc2ccc(Nc3nccc(/C(C#N)=C4\Nc5ccccc5S4)n3)cc2)c1 | % | 100 |

Field: next molecule
Lookup: Please report kinase still bound, per cent of control for the following molecule: `CN(C)C/C=C/C(=O)Nc1cccc(C(=O)Nc2ccc(Nc3nccc(-c4c(-c5ccccc5)nn5ccccc45)n3)cc2)c1`
Found: 100

###

# Measured Target: MYLK2 (human)
# Method: KINOMEscan competition binding
# Test Parameters: compound 1.0 µM
I'd be grateful if you could share measured kinase still bound, per cent of control for these entries.
Give bare numbers, in %.

Consider the reported kinase still bound, per cent of control for these compounds:
| Given Smiles | Unit Name | kinase still bound, per cent of control |
| --- | --- | --- |
| CN(C)C/C=C/C(=O)Nc1cccc(C(=O)Nc2ccc(Nc3nccc(-c4cccnc4)n3)cc2)c1 | % | 35 |
| CN(C)C/C=C/C(=O)Nc1cccc(C(=O)Nc2ccc(Nc3nccc(-c4c(-c5ccccc5)nn5ccccc45)n3)cc2)c1 | % | 100 |
| CN(C)C/C=C/C(=O)Nc1cccc(C(=O)Nc2ccc(Nc3nccc(/C(C#N)=C4\Nc5ccccc5S4)n3)cc2)c1 | % | 100 |

Field: next compound
Lookup: Please report kinase still bound, per cent of control for the following compound: `Cc1cc(NC(=O)c2cccc(NC(=O)/C=C/CN(C)C)c2)ccc1Nc1nccc(-c2cccnc2)n1`
Found: 13

###

I'd be grateful if you could share measured kinase still bound, per cent of control for these entries.
# Measured Target: STK35 (human)
# Method: KINOMEscan competition binding
# Test Parameters: compound 1.0 µM
One number for each entry, in %.

Hi team, please reply with kinase still bound, per cent of control for each item in this list.
1. Cc1cc(NC(=O)c2cccc(NC(=O)/C=C/CN(C)C)c2)ccc1Nc1nccc(-c2cccnc2)n1
2. CN(C)C/C=C/C(=O)Nc1cccc(C(=O)Nc2ccc(Nc3nccc(-c4c(-c5ccccc5)nn5ccccc45)n3)cc2)c1
3. CN(C)C/C=C/C(=O)Nc1cccc(C(=O)Nc2ccc(Nc3nccc(/C(C#N)=C4\Nc5ccccc5S4)n3)cc2)c1

Found:
[68, 94, 97]

Lookup: Please report kinase still bound, per cent of control for the following compound: `CN(C)C/C=C/C(=O)Nc1cccc(C(=O)Nc2ccc(Nc3nccc(-c4cccnc4)n3)cc2)c1`
Found: 67

###

# Measured Target: STK32C (human)
# Method: KINOMEscan competition binding
# Test Parameters: compound 1.0 µM
I'd be grateful if you could share measured kinase still bound, per cent of control for these entries.
One number for each entry, in %.

Consider the reported kinase still bound, per cent of control for these compounds:
| Given Smiles | Measured Target | Reported Endpoint | Reported Result |
| --- | --- | --- | --- |
| CN(C)C/C=C/C(=O)Nc1cccc(C(=O)Nc2ccc(Nc3nccc(-c4cccnc4)n3)cc2)c1 | STK32C (human) | kinase still bound, per cent of control | 98 |
| Cc1cc(NC(=O)c2cccc(NC(=O)/C=C/CN(C)C)c2)ccc1Nc1nccc(-c2cccnc2)n1 | STK32C (human) | kinase still bound, per cent of control | 95 |
| CN(C)C/C=C/C(=O)Nc1cccc(C(=O)Nc2ccc(Nc3nccc(-c4c(-c5ccccc5)nn5ccccc45)n3)cc2)c1 | STK32C (human) | kinase still bound, per cent of control | 99 |

Field: next compound
Lookup: Please report kinase still bound, per cent of control for the following compound: `CN(C)C/C=C/C(=O)Nc1cccc(C(=O)Nc2ccc(Nc3nccc(/C(C#N)=C4\Nc5ccccc5S4)n3)cc2)c1`
Found: 100

###

I'd be grateful if you could share measured kinase still bound, per cent of control for these entries.
# Measured Target: UniProtKB Q04759
# Sequence (Q04759 whole entry, looked up): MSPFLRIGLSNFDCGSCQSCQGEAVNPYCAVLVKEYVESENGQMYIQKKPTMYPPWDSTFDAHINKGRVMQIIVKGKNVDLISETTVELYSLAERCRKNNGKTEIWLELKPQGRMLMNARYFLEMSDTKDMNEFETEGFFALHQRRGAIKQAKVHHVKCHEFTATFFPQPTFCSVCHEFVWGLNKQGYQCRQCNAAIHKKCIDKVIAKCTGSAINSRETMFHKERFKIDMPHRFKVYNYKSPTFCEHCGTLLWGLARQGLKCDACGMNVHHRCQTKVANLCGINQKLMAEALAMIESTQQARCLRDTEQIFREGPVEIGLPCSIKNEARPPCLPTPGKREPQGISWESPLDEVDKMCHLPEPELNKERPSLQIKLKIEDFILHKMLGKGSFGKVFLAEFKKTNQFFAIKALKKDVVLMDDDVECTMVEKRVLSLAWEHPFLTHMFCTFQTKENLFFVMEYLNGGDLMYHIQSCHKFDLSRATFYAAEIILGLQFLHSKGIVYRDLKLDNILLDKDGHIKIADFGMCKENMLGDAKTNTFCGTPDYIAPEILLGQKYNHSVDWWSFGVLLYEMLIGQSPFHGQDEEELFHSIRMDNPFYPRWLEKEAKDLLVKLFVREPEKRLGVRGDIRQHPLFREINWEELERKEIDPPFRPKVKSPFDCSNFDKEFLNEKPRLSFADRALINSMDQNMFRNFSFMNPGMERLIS
# Method: KINOMEscan competition binding
# Test Parameters: compound 1.0 µM
Answers are plain numbers, in %.

Consider the reported kinase still bound, per cent of control for these compounds:
| Given Smiles | Unit Name | Reported Result |
| --- | --- | --- |
| CN(C)C/C=C/C(=O)Nc1cccc(C(=O)Nc2ccc(Nc3nccc(-c4c(-c5ccccc5)nn5ccccc45)n3)cc2)c1 | % | 28 |
| Cc1cc(NC(=O)c2cccc(NC(=O)/C=C/CN(C)C)c2)ccc1Nc1nccc(-c2cccnc2)n1 | % | 100 |
| CN(C)C/C=C/C(=O)Nc1cccc(C(=O)Nc2ccc(Nc3nccc(/C(C#N)=C4\Nc5ccccc5S4)n3)cc2)c1 | % | 100 |

Lookup: Please report kinase still bound, per cent of control for the following compound: `CN(C)C/C=C/C(=O)Nc1cccc(C(=O)Nc2ccc(Nc3nccc(-c4cccnc4)n3)cc2)c1`
Found: 100

###

# Measured Target: RPS6KA4 KD1 (human) (UniProt O75676)
# Sequence (O75676 whole entry, looked up): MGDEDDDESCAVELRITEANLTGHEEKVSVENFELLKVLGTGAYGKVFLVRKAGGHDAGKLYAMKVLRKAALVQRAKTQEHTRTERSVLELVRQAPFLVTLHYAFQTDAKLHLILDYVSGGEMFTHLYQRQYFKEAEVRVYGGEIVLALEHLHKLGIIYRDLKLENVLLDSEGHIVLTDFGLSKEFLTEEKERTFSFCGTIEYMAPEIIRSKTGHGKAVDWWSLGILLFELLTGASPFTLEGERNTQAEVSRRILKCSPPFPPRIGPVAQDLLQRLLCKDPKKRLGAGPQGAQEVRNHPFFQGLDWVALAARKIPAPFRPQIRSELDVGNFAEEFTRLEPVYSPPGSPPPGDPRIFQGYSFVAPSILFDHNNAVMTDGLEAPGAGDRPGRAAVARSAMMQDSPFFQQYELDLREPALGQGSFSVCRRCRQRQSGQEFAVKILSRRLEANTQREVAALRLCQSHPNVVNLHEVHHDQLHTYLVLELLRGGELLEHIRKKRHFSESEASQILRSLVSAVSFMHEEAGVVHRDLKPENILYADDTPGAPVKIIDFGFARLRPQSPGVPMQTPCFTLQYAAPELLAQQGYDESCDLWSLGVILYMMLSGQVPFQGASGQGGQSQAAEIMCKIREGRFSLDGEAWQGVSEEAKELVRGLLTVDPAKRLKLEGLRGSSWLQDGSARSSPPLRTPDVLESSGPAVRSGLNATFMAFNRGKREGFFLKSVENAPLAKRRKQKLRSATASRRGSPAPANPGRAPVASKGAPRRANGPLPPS
# Method: KINOMEscan competition binding
# Test Parameters: compound 1.0 µM
Reported Endpoint: kinase still bound, per cent of control

Consider the reported kinase still bound, per cent of control for these compounds:
| Given Smiles | Measured Target | Reported Result |
| --- | --- | --- |
| CN(C)C/C=C/C(=O)Nc1cccc(C(=O)Nc2ccc(Nc3nccc(/C(C#N)=C4\Nc5ccccc5S4)n3)cc2)c1 | RPS6KA4 KD1 (human) (UniProt O75676) | 89% |
| CN(C)C/C=C/C(=O)Nc1cccc(C(=O)Nc2ccc(Nc3nccc(-c4c(-c5ccccc5)nn5ccccc45)n3)cc2)c1 | RPS6KA4 KD1 (human) (UniProt O75676) | 88% |
| CN(C)C/C=C/C(=O)Nc1cccc(C(=O)Nc2ccc(Nc3nccc(-c4cccnc4)n3)cc2)c1 | RPS6KA4 KD1 (human) (UniProt O75676) | 82% |

Field: next compound
Lookup: Please report kinase still bound, per cent of control for the following compound: `Cc1cc(NC(=O)c2cccc(NC(=O)/C=C/CN(C)C)c2)ccc1Nc1nccc(-c2cccnc2)n1`
Found: 79%

###

I'd be grateful if you could share measured kinase still bound, per cent of control for these entries.
# Measured Target: CDK7 (human)
# Method: KINOMEscan competition binding
# Test Parameters: compound 1.0 µM
Give bare numbers, in %.

Consider the reported kinase still bound, per cent of control for these compounds:
| Given Smiles | Unit Name | kinase still bound, per cent of control |
| --- | --- | --- |
| CN(C)C/C=C/C(=O)Nc1cccc(C(=O)Nc2ccc(Nc3nccc(-c4cccnc4)n3)cc2)c1 | % | 20 |
| CN(C)C/C=C/C(=O)Nc1cccc(C(=O)Nc2ccc(Nc3nccc(/C(C#N)=C4\Nc5ccccc5S4)n3)cc2)c1 | % | 94 |
| Cc1cc(NC(=O)c2cccc(NC(=O)/C=C/CN(C)C)c2)ccc1Nc1nccc(-c2cccnc2)n1 | % | 39 |

Lookup: Please report kinase still bound, per cent of control for the following compound: `CN(C)C/C=C/C(=O)Nc1cccc(C(=O)Nc2ccc(Nc3nccc(-c4c(-c5ccccc5)nn5ccccc45)n3)cc2)c1`
Found: 83

###

I'd be grateful if you could share measured kinase still bound, per cent of control for these entries.
# Measured Target: EPHB1 (human)
# Method: KINOMEscan competition binding
# Test Parameters: compound 1.0 µM
One number for each entry, in %.

| Given Smiles | Unit Name | kinase still bound, per cent of control |
| --- | --- | --- |
| CN(C)C/C=C/C(=O)Nc1cccc(C(=O)Nc2ccc(Nc3nccc(-c4cccnc4)n3)cc2)c1 | % | 92 |
| CN(C)C/C=C/C(=O)Nc1cccc(C(=O)Nc2ccc(Nc3nccc(-c4c(-c5ccccc5)nn5ccccc45)n3)cc2)c1 | % | 84 |
| CN(C)C/C=C/C(=O)Nc1cccc(C(=O)Nc2ccc(Nc3nccc(/C(C#N)=C4\Nc5ccccc5S4)n3)cc2)c1 | % | 100 |

Lookup: Please report kinase still bound, per cent of control for the following molecule: `Cc1cc(NC(=O)c2cccc(NC(=O)/C=C/CN(C)C)c2)ccc1Nc1nccc(-c2cccnc2)n1`
Found: 100
